Test: Size and polydispersity index (PDI) of the lipid nanoparticle by dynamic light scattering
Assay type: physicochemical
Conditions: LNP encapsulating eGFP mRNA, ionizable lipid/DOPE/cholesterol/DMG-PEG2000 50/10/48.25/1.25 mol%, N/P 12; in nm (unit assumed)
reported_endpoint: Particle size

CCCCCCCCCCCCCOC(=O)CCCCCCCN(CCO)CCCN(CCCCCCCC(=O)OCCCCCCCCCCCCC)CCCCCCCC(=O)OCCCCCCCCCCCCC [Example 90] : 84.42

P = CCCCCCCCCCCCCCOC(=O)CCCCCCN(CCCO)CCCN(CCCCCCC(=O)OCCCCCCCCCCCCCC)CCCCCCC(=O)OCCCCCCCCCCCCCC [Example 57]
Q = CCCCCCCCCCCOC(=O)CCCN(CCCO)CCCCCN(CCCC(=O)OCCCCCCCCCCC)CCCC(=O)OCCCCCCCCCCC [Example 83]
Ask | Thinking about recorded Particle size values, which is higher, P or Q ? Kindly give the label for the entry you pick.
Reply | Q

----------
Assay: In vitro transfection of cells with eGFP-mRNA lipid nanoparticle (LNP preparation), fluorescence imaging and flow cytometry
Format: cell-based, mouse
Conditions: mouse, dc2.4 cells, 200 ng of mRNA per well, after 24 hours; read-out: Cell viability, %
Method: This example used mouse bone marrow-derived dendritic cells DC2.4 (purchased from Millipore) as the validation cell line for a lipid nanoparticle transfection experiment. DC2.4 cells adhered to the wall for growth. […] The culture bottle was incubated in a 5% CO2 incubator at 37 °C, and the recovery time was recorded. • 2) Cell passaging: Under a microscope, if the cell density in the field of view reached 80%-90%, cells could be passaged and cultured. […]
List of viability at 24 h values.
Respond numerically; units are % and should not be typed.

Worked set:
CCCCCCCCCCCCCOC(=O)CCCCN(CCO)CCCN(CCCCC(=O)OCCCCCCCCCCCCC)CCCCC(=O)OCCCCCCCCCCCCC : 96.9
CCCCCCCCCCCOC(=O)CCCCCCCN(CCCCCCCC(=O)OCCCCCCCCCCC)CCCN(CCCO)CCCN(CCCCCCCC(=O)OCCCCCCCCCCC)CCCCCCCC(=O)OCCCCCCCCCCC : 96.9
CCCCCCCCCCCCCCCOC(=O)CCCCCCCN(CCO)CCCN(CCCCCCCC(=O)OCCCCCCCCCCCCCCC)CCCCCCCC(=O)OCCCCCCCCCCCCCCC : 95.1
CCCCCCCCCCCCCOC(=O)CCCCCCCN(CCCO)CCCN(CCCCCCCC(=O)OCCCCCCCCCCCCC)CCCCCCCC(=O)OCCCCCCCCCCCCC : 96.7
CCCCCCCCCCCCCOC(=O)CCN(CCO)CCCN(CCC(=O)OCCCCCCCCCCCCC)CCC(=O)OCCCCCCCCCCCCC : 91.2

For this molecule ( `CCCCCCCCCCCCCOC(=O)CN(CCCO)CCCN(CC(=O)OCCCCCCCCCCCCC)CC(=O)OCCCCCCCCCCCCC` ), measured viability at 24 h is 83.9

The reported value for `CCCCCCCCCCCCCCOC(=O)CCCCCCN(CCO)CCCN(CCCCCCC(=O)OCCCCCCCCCCCCCC)CCCCCCC(=O)OCCCCCCCCCCCCCC` in terms of viability at 24 h is 80.5

// field: viability at 24 h; key: `CCCCCC/C=C\COC(=O)CCCN(CCO)CCCN(CCCC(=O)OC/C=C\CCCCCC)CCCC(=O)OC/C=C\CCCCCC` ; value = 84.6

Briefly, viability at 24 h measured for `CCCCCCCCCCCOC(=O)CCCN(CCO)CCCCN(CCCC(=O)OCCCCCCCCCCC)CCCC(=O)OCCCCCCCCCCC` : 97.5

The reported value for `CCCCCCCCCCCOC(=O)CCCCN(CCO)CCCN(CCCCC(=O)OCCCCCCCCCCC)CCCCC(=O)OCCCCCCCCCCC` in terms of viability at 24 h is 92.9

# viability at 24 h (molecule: `CCCCCCCCCCCCCOC(=O)CCCCCN(CCO)CCCN(CCCCCC(=O)OCCCCCCCCCCCCC)CCCCCC(=O)OCCCCCCCCCCCCC` ) is 98.1

Just so you know, measured viability at 24 h for `CCCCCCCCCCCOC(=O)CN(CCCO)CCCN(CC(=O)OCCCCCCCCCCC)CC(=O)OCCCCCCCCCCC` came out at 71

`CCCCCCCCCCCCCCOC(=O)CCCCCCN(CCCCO)CCCN(CCCCCCC(=O)OCCCCCCCCCCCCCC)CCCCCCC(=O)OCCCCCCCCCCCCCC` has a reported viability at 24 h of 63.2

Provenance of the data: patent EP4678629A1
